test system: THRa:RXRa (NR concentration 90 nM, RXRa partner concentration 90 nM); assay: PBM binding z-score (relative to random genomic background probes); higher = stronger binding; sequences stand for … in GC…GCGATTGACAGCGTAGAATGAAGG
Entries annotated with measured PBM binding z-score

Sequence Content | Assayed System | PBM binding z-score
CCTCGGAGGACAAGAGGAGGTCAGAGCTGCCAGA | THRa:RXRa (NR concentration 90 nM, RXRa partner concentration 90 nM) | 2.55
GCTTACGGGTCAAAGGTTATCGCATGAATAGAAT | THRa:RXRa (NR concentration 90 nM, RXRa partner concentration 90 nM) | 3.98
CCTAGCAGTCCAGGGTCACTCAAGCATTTCGCTT | THRa:RXRa (NR concentration 90 nM, RXRa partner concentration 90 nM) | 2.95
TCTTGTAGATCAAAGGTTACGAAAGCCGAAGCCT | THRa:RXRa (NR concentration 90 nM, RXRa partner concentration 90 nM) | 1.66
ACAGACAGGTGATGAAGGTAACGCAGGCTATCAT | THRa:RXRa (NR concentration 90 nM, RXRa partner concentration 90 nM) | 0.435

In plain terms, TCATATAGGCAAATGCTAGGTGAAAGTCCGATCT has a documented PBM binding z-score of 0.84

In plain terms, CCGAGTAGGTTATGGGGCATTCTGGCAACGGTGA has a documented PBM binding z-score of 0.0308
